assay-name: qHTS assay to identify small molecule agonists of the sonic hedgehog signaling (Shh) pathway - cell viability counter screen (AID 1259366); further: nearly all actives have a fitted effect of over 50% in size
condition-details: NIH/3T3 Gli1-Luc viability, CellTiter-Fluor, 24 h; series mostly up to 92.4 µM
Results filed as inconclusive are left out. The source made the active and inactive calls. The call rests on the fitted dose curve; in most records, active means well fitted cell-killing curve with a large enough effect in the repeat runs; inconclusive means weak or mixed curves, or effect the other way; inactive means flat fitted curve, though single readings scatter.
Tick one outcome: T for active, F for inactive

Input: GET /call?item= Cn1c(=O)[nH]c2ncn(C)c2c1=O returns the recorded outcome of this test.
Output: F

Input: GET /call?item= CC(C)c1ccc2sc3ccccc3c(=O)c2c1 returns the recorded outcome of this test.
Output: F

Input: GET /call?item= CCCC(=O)c1cc(O)c(O)cc1O returns the recorded outcome of this test.
Output: T
